Target: human alpha 7-wt nAChR (Homo sapiens, UniProt P36544)
Construct: expressed in transfected cells
Sequence (P36544 23-502): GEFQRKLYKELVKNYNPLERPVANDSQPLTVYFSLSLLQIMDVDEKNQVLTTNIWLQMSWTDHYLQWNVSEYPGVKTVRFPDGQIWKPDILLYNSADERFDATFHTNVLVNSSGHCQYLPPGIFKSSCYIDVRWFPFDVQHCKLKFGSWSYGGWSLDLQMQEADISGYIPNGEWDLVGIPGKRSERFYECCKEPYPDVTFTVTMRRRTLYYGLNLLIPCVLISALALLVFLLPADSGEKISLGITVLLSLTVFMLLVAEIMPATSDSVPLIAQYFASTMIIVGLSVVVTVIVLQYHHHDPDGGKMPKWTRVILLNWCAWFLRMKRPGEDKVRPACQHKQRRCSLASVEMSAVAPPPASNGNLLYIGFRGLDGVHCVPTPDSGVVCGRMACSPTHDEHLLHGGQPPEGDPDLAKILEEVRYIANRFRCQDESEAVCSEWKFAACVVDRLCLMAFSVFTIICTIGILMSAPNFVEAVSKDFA
Experiment: Ca2+ flux imaging (FDSS) (Protocol B)
Type: cell-based
Details: efficacy of 100 μM choline defined as 100% in the absence of a PAM; read-out: a7-PAM-G_[33]_Eff_Curve_FI % Efficacy
Readout Kind: Emax (%)

These solved cases illustrate the format of a correct answer.
| Compound | Uom | Readout Number |
| --- | --- | --- |
| Cc1cc(-c2sc(N3C[C@@H](C)O[C@@H](C)C3)nc2CNC(=O)CC2CC2)ccn1 | % | 736 |
| Cc1cc(-c2sc(N3C[C@@H](C)O[C@@H](C)C3)nc2CNC(=O)c2ccccc2)cc(C)n1 | % | 403 |
| Cc1cc(-c2sc(N3C[C@@H](C)O[C@@H](C)C3)nc2CNC(=O)c2sc(C)nc2C)cc(C)n1 | % | 593 |
| Cc1cc(-c2sc(N3C[C@@H](C)O[C@@H](C)C3)nc2CNC(=O)c2cccc(C#N)c2)cc(C)n1 | % | 595 |
| Cc1cc(C(=O)NCc2nc(N3CCOCC3)sc2-c2ccncc2)no1 | % | 812 |

a. Cc1cc(-c2sc(N3CC(C)OC(C(F)(F)F)C3)nc2CNC(=O)CC2CC2)cc(C)n1 (single isomer, unassigned)
b. CCCC(=O)NCc1nc(N2C[C@@H](C)O[C@@H](C)C2)sc1-c1cc(C)nc(C)c1
Select the item with the higher value of Emax from the options a and b listed. Lab note: record the label of whichever item you select. a

I. Cc1cc(-c2sc(N3C[C@@H](C)O[C@@H](C)C3)nc2CNC(=O)c2ccc(OC(F)(F)F)cc2)cc(C)n1
II. Cc1cc(-c2sc(N3C[C@@H](C)O[C@@H](C)C3)nc2CNC(=O)c2ccc(F)cc2)ccn1
Hi, I'm comparing two records. Which one has the lower Emax, I or II ? Lab note: record the label of whichever item you select. II
(II: 420%, I: 703%)

a. Cc1ccc(-c2sc(N3C[C@@H](C)O[C@@H](C)C3)nc2CNC(=O)CC2CC2)cn1
b. Cc1cc(-c2sc(N3C[C@@H](C)O[C@@H](C)C3)nc2CNC(=O)C(C)C)cc(C2CC2)n1
Select the item with the higher value of Emax from the options a and b listed. Lab note: record the label of whichever item you select. b
(b: 764%, a: 302%)
